test system: human NHE3 (Homo sapiens)
Construct: host or cells: PS120 fibroblasts
assay info: Cell-based assay of NHE-3 activity (pre-incubation inhibition), human
assay conditions: human Preincuba assay; PS120 fibroblasts expressing human NHE3 and NHERF2
Description: Rat and human NHE-3-mediated Na^+-dependent H^+ antiport was measured using a modification of the pH sensitive dye method originally reported by Paradiso (Proc. Natl. Acad. Sci. USA. (1984) 81(23): 7436-7440). […] Changes in intracellular pH were monitored using a FLIPR Tetra®® (Molecular Devices, Sunnyvale, Calif.) by excitation at λex 439 to 505 nm, and measuring BCECF fluorescence at λem 538 nm. […]
quantity kind: % inhibition

Known % inhibition results, listed for orientation:
CN1Cc2c(Cl)cc(Cl)cc2[C@H](c2cccc(S(=O)(=O)N3CCC(OCCOCCNC(=O)NCCCCNC(=O)NCCOCCOC4CCN(S(=O)(=O)c5cccc([C@@H]6CN(C)Cc7c(Cl)cc(Cl)cc76)c5)CC4)CC3)c2)C1
C (>70%)
CN1Cc2c(Cl)cc(Cl)cc2C(c2cccc(S(=O)(=O)N[C@@H]3CCN(CCOCCNC(=O)NCCCCNC(=O)NCCOCCN4CC[C@@H](NS(=O)(=O)c5cccc(C6CN(C)Cc7c(Cl)cc(Cl)cc76)c5)C4)C3)c2)C1 (stereo partly drawn)
C (>70%)
CN1Cc2c(Cl)cc(Cl)cc2[C@H](c2cccc(S(=O)(=O)N3CC[C@H](OCCOCCNC(=O)NCCCCNC(=O)NCCOCCO[C@H]4CCN(S(=O)(=O)c5cccc([C@@H]6CN(C)Cc7c(Cl)cc(Cl)cc76)c5)C4)C3)c2)C1
C (>70%)
CN1Cc2c(Cl)cc(Cl)cc2[C@H](c2cccc(S(=O)(=O)N3CC[C@@H](OCCOCCNC(=O)NCCCCNC(=O)NCCOCCO[C@@H]4CCN(S(=O)(=O)c5cccc([C@@H]6CN(C)Cc7c(Cl)cc(Cl)cc76)c5)C4)C3)c2)C1
C (>70%)

Now for a further molecule.
Given the entry CN1Cc2c(Cl)cc(Cl)cc2[C@H](c2cccc(S(=O)(=O)NC(C)(C)COCCOCCNC(=O)NCCCCNC(=O)NCCOCCOCC(C)(C)NS(=O)(=O)c3cccc([C@@H]4CN(C)Cc5c(Cl)cc(Cl)cc54)c3)c2)C1 , report its measured % inhibition.
C (>70%)

* * *

test system: human NHE3 (Homo sapiens)
Construct: host or cells: PS120 fibroblasts
assay info: Cell-based assay of NHE-3 activity (persistent inhibition after washout), human
assay conditions: human Persistence assay; after 60 min incubation and washout
pIC50: −log10 of the molar value.
Listed below: pIC50 values for each entry.

CN1Cc2c(Cl)cc(Cl)cc2C(c2cccc(S(=O)(=O)N[C@@H]3CCN(CCOCCNC(=O)NCCCCNC(=O)NCCOCCN4CC[C@@H](NS(=O)(=O)c5cccc(C6CN(C)Cc7c(Cl)cc(Cl)cc76)c5)C4)C3)c2)C1 (stereo partly drawn)
> 7.00
CN1Cc2c(Cl)cc(Cl)cc2[C@H](c2cccc(S(=O)(=O)N3CC[C@H](OCCOCCNC(=O)NCCCCNC(=O)NCCOCCO[C@H]4CCN(S(=O)(=O)c5cccc([C@@H]6CN(C)Cc7c(Cl)cc(Cl)cc76)c5)C4)C3)c2)C1
6.00 to 7.00
CN1Cc2c(Cl)cc(Cl)cc2[C@H](c2cccc(S(=O)(=O)N3CC[C@@H](OCCOCCNC(=O)NCCCCNC(=O)NCCOCCO[C@@H]4CCN(S(=O)(=O)c5cccc([C@@H]6CN(C)Cc7c(Cl)cc(Cl)cc76)c5)C4)C3)c2)C1
6.00 to 7.00
CN1Cc2c(Cl)cc(Cl)cc2[C@H](c2cccc(S(=O)(=O)NC(C)(C)COCCOCCNC(=O)NCCCCNC(=O)NCCOCCOCC(C)(C)NS(=O)(=O)c3cccc([C@@H]4CN(C)Cc5c(Cl)cc(Cl)cc54)c3)c2)C1
6.00 to 7.00
CC(C)[C@H](COCCOCCNC(=O)NCCCCNC(=O)NCCOCCOC[C@H](NS(=O)(=O)c1cccc([C@@H]2CN(C)Cc3c(Cl)cc(Cl)cc32)c1)C(C)C)NS(=O)(=O)c1cccc([C@@H]2CN(C)Cc3c(Cl)cc(Cl)cc32)c1
< 6.00

Now for a further compound.
Given the entry CN1Cc2c(Cl)cc(Cl)cc2[C@H](c2cccc(S(=O)(=O)N3CCC(OCCOCCNC(=O)NCCCCNC(=O)NCCOCCOC4CCN(S(=O)(=O)c5cccc([C@@H]6CN(C)Cc7c(Cl)cc(Cl)cc76)c5)CC4)CC3)c2)C1 , report its measured pIC50.
6.00 to 7.00

* * *

Listed below: IC50 values for each entry.
test system: human NHE3 (Homo sapiens, UniProt P48764)
Construct: host or cells: PS120 fibroblasts
Sequence (P48764 26-834): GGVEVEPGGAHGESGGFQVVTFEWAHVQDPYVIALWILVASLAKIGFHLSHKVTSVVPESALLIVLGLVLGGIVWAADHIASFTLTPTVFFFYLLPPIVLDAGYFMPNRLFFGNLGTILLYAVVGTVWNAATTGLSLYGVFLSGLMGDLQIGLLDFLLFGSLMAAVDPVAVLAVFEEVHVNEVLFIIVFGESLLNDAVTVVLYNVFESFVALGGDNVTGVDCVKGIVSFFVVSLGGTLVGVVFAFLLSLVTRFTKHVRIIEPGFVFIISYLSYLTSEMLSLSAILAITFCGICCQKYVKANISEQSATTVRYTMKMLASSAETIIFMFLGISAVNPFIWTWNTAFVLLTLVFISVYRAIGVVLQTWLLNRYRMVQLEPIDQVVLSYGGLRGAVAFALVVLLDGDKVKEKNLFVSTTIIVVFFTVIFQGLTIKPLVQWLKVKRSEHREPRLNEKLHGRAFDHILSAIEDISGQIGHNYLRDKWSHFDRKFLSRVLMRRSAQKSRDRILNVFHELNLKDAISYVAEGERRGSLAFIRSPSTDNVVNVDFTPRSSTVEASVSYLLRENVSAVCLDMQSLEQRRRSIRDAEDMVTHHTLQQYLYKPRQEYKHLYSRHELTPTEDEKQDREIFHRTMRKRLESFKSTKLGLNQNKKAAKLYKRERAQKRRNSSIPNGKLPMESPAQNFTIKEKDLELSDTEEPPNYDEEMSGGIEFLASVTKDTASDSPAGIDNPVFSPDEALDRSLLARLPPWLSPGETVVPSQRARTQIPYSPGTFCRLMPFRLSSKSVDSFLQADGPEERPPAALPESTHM
Sequence (Q99653 2-195 partner limits assumed): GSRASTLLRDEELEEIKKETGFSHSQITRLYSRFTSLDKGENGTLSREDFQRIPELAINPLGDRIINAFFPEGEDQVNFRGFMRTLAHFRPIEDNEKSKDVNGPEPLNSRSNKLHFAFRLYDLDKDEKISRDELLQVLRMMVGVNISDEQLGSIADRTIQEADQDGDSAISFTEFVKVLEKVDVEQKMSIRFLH
assay info: Cell-based assay of NHE-3 activity (pre-incubation inhibition), human
assay conditions: human Preincuba assay; PS120 fibroblasts expressing human NHE3 and NHERF2
Experimental: Rat and human NHE-3-mediated Na^+-dependent H^+ antiport was measured using a modification of the pH sensitive dye method originally reported by Paradiso (Proc. Natl. Acad. Sci. USA. (1984) 81(23): 7436-7440). […] Changes in intracellular pH were monitored using a FLIPR Tetra®® (Molecular Devices, Sunnyvale, Calif.) by excitation at λex 439 to 505 nm, and measuring BCECF fluorescence at λem 538 nm. […]

Known IC50 results, listed for orientation:
CN1Cc2c(Cl)cc(Cl)cc2C(c2cccc(S(=O)(=O)N[C@@H]3CCN(CCOCCNC(=O)NCCCCNC(=O)NCCOCCN4CC[C@@H](NS(=O)(=O)c5cccc(C6CN(C)Cc7c(Cl)cc(Cl)cc76)c5)C4)C3)c2)C1 (stereo partly drawn) [Example 24]
< 100 nM
CC(C)[C@H](COCCOCCNC(=O)NCCCCNC(=O)NCCOCCOC[C@H](NS(=O)(=O)c1cccc([C@@H]2CN(C)Cc3c(Cl)cc(Cl)cc32)c1)C(C)C)NS(=O)(=O)c1cccc([C@@H]2CN(C)Cc3c(Cl)cc(Cl)cc32)c1 [Example 51]
> 1000 nM
CN1Cc2c(Cl)cc(Cl)cc2[C@H](c2cccc(S(=O)(=O)N3CC[C@H](OCCOCCNC(=O)NCCCCNC(=O)NCCOCCO[C@H]4CCN(S(=O)(=O)c5cccc([C@@H]6CN(C)Cc7c(Cl)cc(Cl)cc76)c5)C4)C3)c2)C1 [Example 50]
< 100 nM
CN1Cc2c(Cl)cc(Cl)cc2[C@H](c2cccc(S(=O)(=O)NC(C)(C)COCCOCCNC(=O)NCCCCNC(=O)NCCOCCOCC(C)(C)NS(=O)(=O)c3cccc([C@@H]4CN(C)Cc5c(Cl)cc(Cl)cc54)c3)c2)C1 [Example 47]
< 100 nM
CN1Cc2c(Cl)cc(Cl)cc2[C@H](c2cccc(S(=O)(=O)N3CC[C@@H](OCCOCCNC(=O)NCCCCNC(=O)NCCOCCO[C@@H]4CCN(S(=O)(=O)c5cccc([C@@H]6CN(C)Cc7c(Cl)cc(Cl)cc76)c5)C4)C3)c2)C1 [Example 49]
< 100 nM

Now for a further compound.
Given the entry CN1Cc2c(Cl)cc(Cl)cc2[C@H](c2cccc(S(=O)(=O)N3CCC(OCCOCCNC(=O)NCCCCNC(=O)NCCOCCOC4CCN(S(=O)(=O)c5cccc([C@@H]6CN(C)Cc7c(Cl)cc(Cl)cc76)c5)CC4)CC3)c2)C1 [Example 48] , report its measured IC50.
< 100 nM
